// data source = patent US10308916B2

System: OATA WT
Assay type: biochemical, Ochrobactrum anthropi
measurement-name: Relative activity, OATA WT (%)
Just the number please, in %, no unit attached.

Find the measured Relative activity, OATA WT: item CCC(=O)C(=O)O , target or system OATA WT.
17.2

Find the measured Relative activity, OATA WT: item CCCC(=O)C(=O)O , target or system OATA WT.
0.6

Find the measured Relative activity, OATA WT: item CCCCCCC(=O)C(=O)O , target or system OATA WT.
1

Find the measured Relative activity, OATA WT: item CC(=O)C(=O)O [pyruvate, pyruvic acid] , target or system OATA WT.
100

Find the measured Relative activity, OATA WT: item CCCCC(=O)C(=O)O , target or system OATA WT.
1
